// values below are reported Kd
target: T1, cynomolgus monkey IL-6 (cynomolgus monkey, UniProt P79341 28-212, limits assumed); assay: SPR; periplasmic fraction
T1 construct: also called HIS-cyIL-6
Answer in nM, number only, no unit symbol.

Fab 29B11 (Fab, V domains shown, Fab) VH: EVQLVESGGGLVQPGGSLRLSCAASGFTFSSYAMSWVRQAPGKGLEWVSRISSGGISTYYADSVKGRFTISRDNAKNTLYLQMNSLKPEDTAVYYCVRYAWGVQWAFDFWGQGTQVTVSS VL: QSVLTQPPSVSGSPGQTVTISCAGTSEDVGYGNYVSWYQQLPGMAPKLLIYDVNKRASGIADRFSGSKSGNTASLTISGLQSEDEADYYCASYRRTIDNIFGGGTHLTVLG; 6.61
Fab 55E2 (Fab, V domains shown, VL-shuffled Fab of 29B11, periplasmic fraction; also called 55E2b) VH: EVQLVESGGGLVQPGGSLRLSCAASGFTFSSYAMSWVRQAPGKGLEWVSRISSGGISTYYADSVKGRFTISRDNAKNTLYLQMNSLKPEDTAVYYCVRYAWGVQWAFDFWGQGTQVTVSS VL: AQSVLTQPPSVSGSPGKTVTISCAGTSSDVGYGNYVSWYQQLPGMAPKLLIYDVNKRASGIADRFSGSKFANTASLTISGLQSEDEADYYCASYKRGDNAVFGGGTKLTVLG; 0.717

Okay, now this binder:
Query: Reported Kd for Fab 48C10 (Fab, V domains shown, VL-shuffled Fab of 29B11, periplasmic fraction) VH: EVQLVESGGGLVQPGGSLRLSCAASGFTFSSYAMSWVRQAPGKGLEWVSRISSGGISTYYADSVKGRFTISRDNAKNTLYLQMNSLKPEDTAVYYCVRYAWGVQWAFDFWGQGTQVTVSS VL: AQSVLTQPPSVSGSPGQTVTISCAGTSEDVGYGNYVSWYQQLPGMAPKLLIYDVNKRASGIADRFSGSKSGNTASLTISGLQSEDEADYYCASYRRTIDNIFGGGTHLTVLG : what is it?
Reply: 2.44

Numbers sourced from patent US20220073604A1.
